Molecular target: T1, FtsQ (58–276), periplasmic domain of E. coli FtsQ (Escherichia coli strain K-12, UniProt P06136 58-276)
T1 construct: FtsQ, Escherichia coli K-12, periplasmic domain (alpha and beta domains), residues 58-276; construct printed as M-58-276-GSH6; No tag cleavage is described; also called FtsQ (residues 58 to 276); Q: M-58-276-GSH6; source: E. coli C41(DE3), purified (HisTrap, Sephacryl S300); not shown: His6, C-terminal, kept
T1 sequence (P06136 58-276): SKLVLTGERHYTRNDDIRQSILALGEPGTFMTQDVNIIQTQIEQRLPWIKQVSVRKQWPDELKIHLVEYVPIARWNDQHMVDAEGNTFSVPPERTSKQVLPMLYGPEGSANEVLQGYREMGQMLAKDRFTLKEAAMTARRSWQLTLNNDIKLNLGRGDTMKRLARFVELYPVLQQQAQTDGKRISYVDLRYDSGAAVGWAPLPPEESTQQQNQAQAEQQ
Assay: SPR; FtsQ (58–276) immobilised on a CM5 chip by amide coupling (~1,000 RU); Biacore T200, 20°C; 10 mM HEPES pH 7.4, 150 mM NaCl, 0.4% glycerol; analytes injected 120 s, 600 s dissociation, 1:2 dilution series, triplicate
Conditions: both partners purified
METRIC NAME: Kd (nM)

* FtsB (22–103), periplasmic domain of E. coli FtsB (domain or fragment, UniProt P0A6S5 22-103, looked up, No tag cleavage is described; source: E. coli C41(DE3), purified (HisTrap, Sephacryl S300); not shown: His6, N-terminal, kept) GKNGIHDYTRVNDDVAAQQATNAKLKARNDQLFAEIDDLNGGQEALEERARNELSMTRPGETFYRLVPDASKRAQSAGQNNR | 800
